assay-target: human α1β2γ1 GABAA receptors (Homo sapiens, UniProt P14867+P47870+Q8N1C3)
Sequence (Q8N1C3 36-465): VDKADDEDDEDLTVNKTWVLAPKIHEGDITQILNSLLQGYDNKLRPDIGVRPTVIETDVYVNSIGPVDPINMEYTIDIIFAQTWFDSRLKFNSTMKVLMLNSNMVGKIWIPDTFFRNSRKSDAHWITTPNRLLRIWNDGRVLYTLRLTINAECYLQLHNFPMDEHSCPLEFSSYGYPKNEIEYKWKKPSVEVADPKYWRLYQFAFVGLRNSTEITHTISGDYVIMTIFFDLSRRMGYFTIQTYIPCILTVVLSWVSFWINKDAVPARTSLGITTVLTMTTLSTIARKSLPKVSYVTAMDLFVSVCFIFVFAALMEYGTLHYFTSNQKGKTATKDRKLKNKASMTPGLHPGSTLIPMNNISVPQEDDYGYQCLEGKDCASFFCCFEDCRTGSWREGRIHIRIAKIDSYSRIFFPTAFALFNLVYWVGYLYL
Sequence (P47870 25-512 limits assumed): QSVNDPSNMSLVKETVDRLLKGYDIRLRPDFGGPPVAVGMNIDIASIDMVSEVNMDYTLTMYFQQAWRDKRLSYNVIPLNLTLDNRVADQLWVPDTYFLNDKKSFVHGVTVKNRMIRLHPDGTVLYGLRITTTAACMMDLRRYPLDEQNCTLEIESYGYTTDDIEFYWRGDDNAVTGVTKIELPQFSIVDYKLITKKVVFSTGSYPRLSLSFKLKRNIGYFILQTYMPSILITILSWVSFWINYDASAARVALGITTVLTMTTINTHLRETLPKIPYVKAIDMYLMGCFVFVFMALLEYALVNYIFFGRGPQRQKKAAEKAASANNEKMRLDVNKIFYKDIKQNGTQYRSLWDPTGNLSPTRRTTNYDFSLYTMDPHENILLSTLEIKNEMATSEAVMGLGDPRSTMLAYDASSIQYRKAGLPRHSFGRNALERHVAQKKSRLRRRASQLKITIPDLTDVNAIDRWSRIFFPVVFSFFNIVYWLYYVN
Sequence (P14867 28-456): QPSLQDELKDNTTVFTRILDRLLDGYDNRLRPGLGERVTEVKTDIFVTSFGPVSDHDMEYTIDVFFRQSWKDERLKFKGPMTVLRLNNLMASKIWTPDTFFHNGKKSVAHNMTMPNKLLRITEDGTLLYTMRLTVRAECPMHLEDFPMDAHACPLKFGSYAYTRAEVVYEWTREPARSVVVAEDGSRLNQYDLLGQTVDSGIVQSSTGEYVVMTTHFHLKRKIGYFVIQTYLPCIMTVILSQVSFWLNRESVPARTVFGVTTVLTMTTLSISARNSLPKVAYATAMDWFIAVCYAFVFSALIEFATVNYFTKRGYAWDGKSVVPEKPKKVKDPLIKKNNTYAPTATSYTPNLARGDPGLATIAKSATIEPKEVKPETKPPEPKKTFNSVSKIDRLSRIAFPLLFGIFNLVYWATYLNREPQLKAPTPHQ
condition-summary: γ1 (α1β2γ1); co-applied with GABA EC10
value-kind: EC50

• CCN(C(C)=O)c1cccc(-c2ccnc3c(C#N)cnn23)c1 = No fit
• CN1CCN(C(=O)O[C@H]2c3nccnc3C(=O)N2c2ccc(Cl)cn2)CC1 = No fit
• CCCN(CCC)C(=O)Cc1c(-c2ccc(Cl)cc2)nc2ccc(Cl)cn12 = No fit
• CC(=O)N(C)c1cccc(-c2ccnc3c(C(=O)c4cccs4)cnn23)c1 = No fit

Taken from paper PMC7710685.
